property.name: melting point

1. COc1ccc2[nH]c(-c3ccc(OCc4cn(-c5ccnc6cc(Cl)ccc56)nn4)cc3)nc2c1	85 to 86 °C
2. Cl.Cl.Cl.N=C(N)c1ccc2[nH]c(-c3ccc(OCc4cn(-c5ccnc6cc(Cl)ccc56)nn4)cc3)nc2c1	240 to 242 °C
3. Clc1ccc2c(NCCn3cc(COc4ccc(-c5nc6ccccc6[nH]5)cc4)nn3)ccnc2c1 [Compound 14a]	221 to 223 °C
4. COc1ccc2[nH]c(-c3ccc(OCc4cn(CCNc5ccnc6cc(Cl)ccc56)nn4)cc3)nc2c1 [Compound 14c]	150 to 152 °C
5. Clc1ccc2c(NCCn3cc(COc4ccc(-c5nc6ccccc6[nH]5)cc4Br)nn3)ccnc2c1 [Compound 15a]	155 to 157 °C
6. Clc1ccc2[nH]c(-c3ccc(OCc4cn(-c5ccnc6cc(Cl)ccc56)nn4)cc3)nc2c1	168 to 170 °C

Now let's try a different one.
Sample CCCNC(=N)c1ccc2[nH]c(-c3ccc(OCc4cn(CCNc5ccnc6cc(Cl)ccc56)nn4)cc3)nc2c1.Cl.Cl.Cl [Compound 14e] ; melting point observed: 209 to 211 °C
